# System: MS2 coat protein
# test: apparent KD of MS2 coat protein; designed switch direction (-1 OFF switch, 1 ON switch): 1; higher = weaker reporter binding
# conditionLabel: input ligand: microRNA oligo, concentration not stated
Values of apparent KD of MS2 coat protein greater than or equal to 40 nM map to T; values below map to F.

# sequenceEntry, classLabel
data = [
    ("AUUAUUUAUGCAGGAUAUGAUUAACAUGAGGAUCACCCAUGUGGUGUUGUGAGUAAGGAGAGUGAUCAGAAGGGCAUUUUUAUU [JMF's solution 52] (Eterna round: R96, puzzle: Same State NG 2)", "T"),
    ("UGUUGUAUUACAGGAUAUCUAGUUUUUUUAUUUAGAGAAGGGUAUUCACAUGAGGAUCACCCAUGUAUAUACGAGGAAGUUGUG [JMF's solution 33] (Eterna round: R96, puzzle: Same State NG 1)", "F"),
    ("AAUUAAUUAAUUAAGUACAUGAGGAUCACCCAUGUAAGUGAUCAGGAUAUCAGCUCGAAUAGAGCUGAGAAGGGAUCCAUGUAC [SSNG3/15-A1] (Eterna round: R96, puzzle: Same State NG 3)", "T"),
    ("GCUAGAAUUAAAGCCAACAUGAGGAUCACCCAUGUAUGUUGGUAGGAUAUCGUUUGCAAAGCAAACGAGAAGGGCCAAACUAGC [Mat - Same State NG 3 - JL Mod - D19] (Eterna round: R96, puzzle: Same State NG 3)", "T"),
    ("GCUAGAAUUAAUGCUAACAUGAGGAUCACCCAUGUAUGUUGGCAGGAUAUCGUUUGCUUUGCAAACGAGAAGGGCCAUACUAGC [JL SSNG3 1.09] (Eterna round: R96, puzzle: Same State NG 3)", "F"),
    ("GCUCGCACGAUGACCCACAUGAGGAUCACCCAUGUGCAUGGGCAGGAUAUCUAGAUUAAGGAUGUAGAGAAGGGUUGAGCGAGC [SameState NG3 #26] (Eterna round: R96, puzzle: Same State NG 3)", "T"),
    ("AAGAGGUCCGCAGGAUAUACCCGGGCUCGCCGGGUAGAAGGGUGAACCUCAUAACCCACCACACACAUGAGGAUCACCCAUGUA [Tedile] (Eterna round: R96, puzzle: Same State NG 1)", "T"),
    ("UACCUACCAGGAGGAUAUACAAACCCGAAAGGAGUAGAAGGCCUGAGUACUAACAUGAGGAUCACCCAUGUAGCGCCAGUUCGC [Eternabot solution 10] (Eterna round: R96, puzzle: Same State NG 1)", "F"),
    ("CAAGCUUGGGUCUUCCCGCUCGUCUACAAACAUGAGGAUCACCCAUGUAUACUCUUCGCAUCAAUUCUAUCUCUUGG [Onraenbi] (Eterna round: R96, puzzle: Sensor for hsa-mir-208a)", "F"),
]

Data provenance is the supplement of paper PMC9170038.
